target-or-system: CDK2/Cyclin A2 (Homo sapiens)
test-description: Inhibition of recombinant human N-terminal GST-tagged CDK2/cyclin A expressed in baculovirus expression system using retinoblastoma (792 to 928 residues) as substrate after 30 mins by gamma32P-ATP based scintillation counting analysis
parameter-measured: IC50 (nM)
Give bare numbers, in nM.

[in] What does the data say about its IC50? Entry: CN1CC[C@@H](c2c(O)cc(O)c3c(=O)cc(-c4ccccc4Cl)oc23)[C@@H]1CO
[out] 224

###

test-description: Inhibition of CDK6/cyclin D (unknown origin)
Set-up: species or system Homo sapiens
parameter-measured: pKi
Answers are plain numbers, as −log10 of the molar value.

[in] What does the data say about its pKi? Entry: O=C(NC1CCNCC1)c1n[nH]cc1NC(=O)c1c(Cl)cccc1Cl
[out] 6.18

###

target-or-system: CDK8/Cyclin C (Homo sapiens, UniProt P49336)
Sequence (P49336 whole entry): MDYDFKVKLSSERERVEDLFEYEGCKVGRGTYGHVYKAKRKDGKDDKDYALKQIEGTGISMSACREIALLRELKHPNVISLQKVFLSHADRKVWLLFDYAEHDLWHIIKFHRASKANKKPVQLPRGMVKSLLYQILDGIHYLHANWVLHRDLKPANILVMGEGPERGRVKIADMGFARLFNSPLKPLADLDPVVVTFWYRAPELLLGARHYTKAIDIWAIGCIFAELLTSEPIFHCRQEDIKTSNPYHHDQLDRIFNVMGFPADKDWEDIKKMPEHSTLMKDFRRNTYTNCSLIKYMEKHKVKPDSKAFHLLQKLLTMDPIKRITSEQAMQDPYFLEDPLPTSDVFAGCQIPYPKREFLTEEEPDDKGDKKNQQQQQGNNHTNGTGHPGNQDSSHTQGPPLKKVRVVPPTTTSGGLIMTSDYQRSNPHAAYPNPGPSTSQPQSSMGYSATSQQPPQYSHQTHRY
Sequence (P24863 whole entry, further chain): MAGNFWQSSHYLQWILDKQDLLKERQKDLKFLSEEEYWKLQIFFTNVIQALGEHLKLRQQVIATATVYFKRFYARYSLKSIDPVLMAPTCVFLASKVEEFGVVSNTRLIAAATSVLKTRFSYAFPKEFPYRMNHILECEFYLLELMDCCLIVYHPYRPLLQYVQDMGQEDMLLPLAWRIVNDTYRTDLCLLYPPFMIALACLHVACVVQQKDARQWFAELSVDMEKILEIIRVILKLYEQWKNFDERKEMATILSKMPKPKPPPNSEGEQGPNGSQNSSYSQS
test-description: Inhibition of CDK8/cyclin C (unknown origin) using RBER-CHKStide as substrate after 60 mins in presence of 33P-ATP by microbeta scintillation counting analysis
parameter-measured: IC50 (nM)
Answers are plain numbers, in nM.

[in] What does the data say about its IC50? Entry: CC(C)c1c2cc(-c3ccnc(N[C@H]4CC[C@H](NC5CCOCC5)CC4)n3)ccc2nn1C
[out] 16

###

target-or-system: CDK7/Cyclin H/MNAT1 (Homo sapiens, UniProt P50613)
Sequence (P51946 whole entry): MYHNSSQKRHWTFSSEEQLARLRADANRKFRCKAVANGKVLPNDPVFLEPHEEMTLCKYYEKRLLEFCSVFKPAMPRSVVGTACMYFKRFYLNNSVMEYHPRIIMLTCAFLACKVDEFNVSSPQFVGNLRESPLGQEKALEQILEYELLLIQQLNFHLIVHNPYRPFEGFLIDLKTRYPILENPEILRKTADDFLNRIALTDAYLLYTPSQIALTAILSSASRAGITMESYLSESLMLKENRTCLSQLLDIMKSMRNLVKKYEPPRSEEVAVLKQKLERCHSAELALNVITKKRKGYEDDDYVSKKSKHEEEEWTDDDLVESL
Sequence (P50613 whole entry): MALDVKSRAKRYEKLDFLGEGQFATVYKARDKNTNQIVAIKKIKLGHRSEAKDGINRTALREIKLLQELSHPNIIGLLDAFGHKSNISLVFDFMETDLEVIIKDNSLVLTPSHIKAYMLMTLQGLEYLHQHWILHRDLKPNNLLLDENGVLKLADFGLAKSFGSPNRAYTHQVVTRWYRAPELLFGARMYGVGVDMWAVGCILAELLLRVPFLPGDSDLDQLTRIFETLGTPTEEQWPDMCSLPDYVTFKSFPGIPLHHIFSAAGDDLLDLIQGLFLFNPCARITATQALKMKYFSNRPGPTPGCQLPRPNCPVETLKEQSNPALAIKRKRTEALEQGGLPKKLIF
Sequence (P51948 whole entry, further chain): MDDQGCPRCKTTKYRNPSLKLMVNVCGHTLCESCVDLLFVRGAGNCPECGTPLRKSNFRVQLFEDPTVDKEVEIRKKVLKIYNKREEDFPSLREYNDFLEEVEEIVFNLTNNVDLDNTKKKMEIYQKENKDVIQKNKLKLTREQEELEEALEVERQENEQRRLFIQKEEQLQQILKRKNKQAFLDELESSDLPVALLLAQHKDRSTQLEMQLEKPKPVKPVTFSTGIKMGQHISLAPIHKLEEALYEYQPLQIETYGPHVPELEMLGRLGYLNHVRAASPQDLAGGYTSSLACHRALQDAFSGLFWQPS
test-description: Inhibition of recombinant human full length C-terminal His6-tagged CDK7/cyclin H/N-terminal GST-tagged MAT1 expressed in baculovirus infected Sf21 insect cells using CDK7/9ptide as substrate after 60 mins in presence of 33P-ATP by microbeta scintillation counting analysis
parameter-measured: pIC50
Numbers only, as −log10 of the molar value.

[in] What does the data say about its pIC50? Entry: CC(C)c1c2cc(-c3ccnc(N[C@H]4CC[C@H](NC5CCOCC5)CC4)n3)ccc2nn1C
[out] 6.61

###

target-or-system: CDK9/cyclin T1 (Homo sapiens, UniProt P50750)
Sequence (O60563 whole entry): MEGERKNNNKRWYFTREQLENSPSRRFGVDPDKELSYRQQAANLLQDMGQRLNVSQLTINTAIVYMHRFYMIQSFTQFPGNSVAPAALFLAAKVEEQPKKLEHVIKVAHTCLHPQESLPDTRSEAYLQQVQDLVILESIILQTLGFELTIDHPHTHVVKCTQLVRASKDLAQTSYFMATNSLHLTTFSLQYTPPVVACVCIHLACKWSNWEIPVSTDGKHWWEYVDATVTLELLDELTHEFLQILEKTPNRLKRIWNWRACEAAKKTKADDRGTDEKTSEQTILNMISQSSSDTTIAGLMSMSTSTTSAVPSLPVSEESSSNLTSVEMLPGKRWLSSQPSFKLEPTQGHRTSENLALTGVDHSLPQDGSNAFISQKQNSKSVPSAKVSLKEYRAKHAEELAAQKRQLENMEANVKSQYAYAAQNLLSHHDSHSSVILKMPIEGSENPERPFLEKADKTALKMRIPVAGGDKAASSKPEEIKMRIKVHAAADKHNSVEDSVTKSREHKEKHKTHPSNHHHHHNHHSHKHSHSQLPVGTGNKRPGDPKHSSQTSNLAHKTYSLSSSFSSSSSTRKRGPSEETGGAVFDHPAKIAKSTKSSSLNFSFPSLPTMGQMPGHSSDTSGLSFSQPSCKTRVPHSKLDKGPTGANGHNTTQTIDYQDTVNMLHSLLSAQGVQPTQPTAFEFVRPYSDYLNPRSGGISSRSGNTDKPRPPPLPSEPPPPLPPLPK
Sequence (P50750 whole entry): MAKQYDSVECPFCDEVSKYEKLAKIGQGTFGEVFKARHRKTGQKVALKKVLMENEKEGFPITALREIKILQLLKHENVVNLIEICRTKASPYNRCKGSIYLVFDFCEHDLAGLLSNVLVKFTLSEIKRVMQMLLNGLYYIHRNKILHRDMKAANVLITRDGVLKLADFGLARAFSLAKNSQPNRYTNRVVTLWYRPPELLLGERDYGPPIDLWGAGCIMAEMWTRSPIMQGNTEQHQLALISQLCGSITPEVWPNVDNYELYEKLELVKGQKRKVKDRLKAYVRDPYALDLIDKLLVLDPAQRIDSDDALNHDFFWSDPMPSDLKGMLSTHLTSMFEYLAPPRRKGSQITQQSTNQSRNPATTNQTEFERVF
test-description: Inhibition of recombinant human His-tagged CDK9/cyclin T1 expressed in baculovirus infected sf9 cells using (biotinyl-Ahx-(Tyr-Ser-ProThr-Ser-Pro-Ser)4-NH2 as substrate after 45 mins by [gamma-32P]ATP based microbeta scintillation counting analysis
parameter-measured: pKi
Give bare numbers, as −log10 of the molar value.

[in] What does the data say about its pKi? Entry: Cc1c(-c2ccnc(Nc3ccc(N4CCNCC4)cc3)n2)sc(=O)n1C
[out] 9.40

###

target-or-system: CDK9/cyclin T1 (Homo sapiens, UniProt P50750)
test-description: Inhibition of CDK9/cyclin T1 (unknown origin) using cdk7tide peptide as substrate
Format: protein-complex assay
parameter-measured: pIC50
Give bare numbers, as −log10 of the molar value.

[in] What does the data say about its pIC50? Entry: COc1cc(F)ccc1-c1ccnc(NC(=O)[C@@H]2CC[C@H](NC(C)=O)C2)c1
[out] 8.00

###

target-or-system: Cyclin-dependent kinase 4/cyclin D1 (Homo sapiens, UniProt P11802)
Sequence (P11802 whole entry): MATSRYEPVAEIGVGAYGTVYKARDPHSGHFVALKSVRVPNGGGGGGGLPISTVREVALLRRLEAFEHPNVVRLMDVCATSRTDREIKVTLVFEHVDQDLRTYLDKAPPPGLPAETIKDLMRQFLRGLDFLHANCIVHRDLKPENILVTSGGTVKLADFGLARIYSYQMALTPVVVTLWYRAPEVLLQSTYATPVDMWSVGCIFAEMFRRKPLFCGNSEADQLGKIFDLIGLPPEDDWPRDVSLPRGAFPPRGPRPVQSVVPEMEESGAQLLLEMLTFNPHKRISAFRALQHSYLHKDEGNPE
Sequence (P24385 whole entry, further chain): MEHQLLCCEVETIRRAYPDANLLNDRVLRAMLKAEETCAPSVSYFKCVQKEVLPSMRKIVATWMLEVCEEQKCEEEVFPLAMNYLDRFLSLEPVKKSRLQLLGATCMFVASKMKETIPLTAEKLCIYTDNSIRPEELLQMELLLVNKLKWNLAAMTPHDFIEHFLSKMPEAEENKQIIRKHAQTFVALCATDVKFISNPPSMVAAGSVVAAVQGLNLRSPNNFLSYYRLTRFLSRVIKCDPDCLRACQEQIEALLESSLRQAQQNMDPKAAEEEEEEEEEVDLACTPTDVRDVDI
test-description: Inhibition of recombinant CDK4/cyclin D1 (unknown origin)
Format: protein-complex assay
parameter-measured: IC50 (nM)
Answers are plain numbers, in nM.

[in] What does the data say about its IC50? Entry: CN1CC[C@@H](c2c(O)cc(O)c3c(=O)cc(-c4ccc(C(F)(F)F)cc4Cl)oc23)[C@@H]1CO
[out] 90

###

target-or-system: CDK9/cyclin T1 (Homo sapiens, UniProt P50750)
test-description: Inhibition of human His6-tagged CDK9/cyclin T1 expressed in baculovirus infected sf9 cells using GST-CTD as substrate after 10 mins in presence of [gamma-32P]ATP by SDS-PAGE analysis
parameter-measured: IC50 (nM)
Answers are plain numbers, in nM.

# annotated cases, reported IC50 shown
smiles-code: CN1CC[C@H](c2c(O)cc(O)c3c(=O)cc(-c4ccc(Br)cc4)oc23)[C@H](O)C1
IC50 / nM: 5.5

smiles-code: CN1CC[C@H](c2c(O)cc(O)c3c(=O)cc(-c4ccc(C(F)(F)F)cc4)oc23)[C@H](O)C1
IC50 / nM: 19

smiles-code: CN1CC[C@H](c2c(O)cc(O)c3c(=O)cc(-c4ccccc4F)oc23)[C@H](O)C1
IC50 / nM: 2.8

smiles-code: CN1CC[C@H](c2c(O)cc(O)c3c(=O)cc(-c4ccc(F)cc4)oc23)[C@H](O)C1
IC50 / nM: 2.1

Now let's try a different one.
[in] What does the data say about its IC50? Entry: CN1CC[C@H](c2c(O)cc(O)c3c(=O)cc(-c4ccncc4)oc23)[C@H](O)C1
[out] 6.5

###

target-or-system: Cyclin-dependent kinase 1 (Homo sapiens, UniProt P06493)
parameter-measured: IC50

[in] What does the data say about its IC50? Entry: CN1C/C=C/CCOc2cccc(c2)-c2ccnc(n2)Nc2cccc(c2)C1
[out] 3 to 15 nM

###

target-or-system: CDK7/Cyclin H/MNAT1 (Homo sapiens, UniProt P50613)
test-description: Inhibition of recombinant human full length C-terminal His6-tagged CDK7/cyclin H/N-terminal GST-tagged MAT1 expressed in baculovirus infected Sf21 insect cells using cdk7 substrate peptide
parameter-measured: IC50

[in] What does the data say about its IC50? Entry: CN1C/C=C/CCOc2cccc(c2)-c2ccnc(n2)Nc2cccc(c2)C1
[out] 3 to 15 nM

###

I'd be grateful if you could share measured pIC50 for these entries.
target-or-system: Cyclin-dependent kinase 1/cyclin B1 (Homo sapiens)
test-description: Inhibition of recombinant human CDK1/cyclin B expressed in baculovirus infected Sf9 insect cells after 80 mins in presence of [33P]ATP by microbeta scintillation counting analysis
pIC50: −log10 of the molar value.

smiles-code: COc1cc(F)ccc1-c1ccnc(NC(=O)[C@H]2CCC[C@@H](NC(C)=O)C2)c1
pIC50: 5.97 to 7.03

Now let's try a different one.
[in] Item: COc1cc(F)ccc1-c1ccnc(NC(=O)[C@@H]2CC[C@H](NC(C)=O)C2)c1 Test system: Cyclin-dependent kinase 1/cyclin B1 (Homo sapiens) Read-out: pIC50 Value: ?
[out] 5.73 to 6.04

###

target-or-system: CDK3/Cyclin E (Homo sapiens)
Sequence (P24864 whole entry): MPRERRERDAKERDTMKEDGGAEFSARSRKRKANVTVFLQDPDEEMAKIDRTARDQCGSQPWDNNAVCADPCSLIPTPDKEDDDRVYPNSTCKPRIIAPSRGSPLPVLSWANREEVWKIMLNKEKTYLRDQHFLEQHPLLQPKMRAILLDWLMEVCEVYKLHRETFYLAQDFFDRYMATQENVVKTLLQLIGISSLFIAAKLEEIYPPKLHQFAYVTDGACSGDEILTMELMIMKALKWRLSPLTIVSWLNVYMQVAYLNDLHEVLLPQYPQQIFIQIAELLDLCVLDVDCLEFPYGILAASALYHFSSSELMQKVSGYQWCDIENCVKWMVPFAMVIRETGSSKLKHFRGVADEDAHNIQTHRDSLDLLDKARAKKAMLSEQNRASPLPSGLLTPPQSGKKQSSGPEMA
Sequence (Q00526 whole entry): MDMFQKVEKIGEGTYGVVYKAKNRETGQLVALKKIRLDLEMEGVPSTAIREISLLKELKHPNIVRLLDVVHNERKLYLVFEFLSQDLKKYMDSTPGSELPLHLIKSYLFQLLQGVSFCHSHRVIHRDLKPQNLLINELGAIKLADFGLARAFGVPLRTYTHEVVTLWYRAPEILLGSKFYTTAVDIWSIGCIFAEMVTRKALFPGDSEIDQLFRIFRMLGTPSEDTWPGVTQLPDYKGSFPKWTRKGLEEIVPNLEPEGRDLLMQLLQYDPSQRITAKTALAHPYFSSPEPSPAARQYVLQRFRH
test-description: Inhibition of CDK3/cyclin E (unknown origin)
Type: protein-complex assay
pIC50: −log10 of the molar value.
parameter-measured: pIC50

[in] What does the data say about its pIC50? Entry: COCCN1CCN(Cc2ccc(-c3n[nH]c4c3C(=O)c3c(NC(=O)NN5CCOCC5)cccc3-4)cc2)CC1
[out] 7.26 to 8.70

###

target-or-system: Cyclin-dependent kinase 5/CDK5 activator 1 (Homo sapiens, UniProt Q00535)
Sequence (Q00535 whole entry): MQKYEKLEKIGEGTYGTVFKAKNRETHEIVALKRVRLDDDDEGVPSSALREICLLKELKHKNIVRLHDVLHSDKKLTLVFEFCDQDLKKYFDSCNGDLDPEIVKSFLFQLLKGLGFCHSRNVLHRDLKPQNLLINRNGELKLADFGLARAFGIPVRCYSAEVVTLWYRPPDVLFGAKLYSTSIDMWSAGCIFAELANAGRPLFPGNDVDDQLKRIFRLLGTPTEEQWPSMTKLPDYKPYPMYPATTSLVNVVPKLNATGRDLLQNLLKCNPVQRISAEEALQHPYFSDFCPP
Sequence (Q15078 whole entry, further chain): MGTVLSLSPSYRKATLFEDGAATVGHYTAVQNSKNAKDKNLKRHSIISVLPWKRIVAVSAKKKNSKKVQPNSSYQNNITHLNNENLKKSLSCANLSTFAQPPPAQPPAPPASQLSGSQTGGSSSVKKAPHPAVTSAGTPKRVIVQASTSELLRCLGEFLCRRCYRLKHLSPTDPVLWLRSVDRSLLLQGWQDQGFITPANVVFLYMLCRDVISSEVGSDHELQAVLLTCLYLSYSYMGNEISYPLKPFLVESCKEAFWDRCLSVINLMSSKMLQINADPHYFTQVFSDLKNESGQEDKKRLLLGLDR
test-description: Inhibition of CDK5/p35 (unknown origin)
Type: protein-complex assay
parameter-measured: IC50

[in] Item: COCCN1CCN(Cc2ccc(-c3n[nH]c4c3C(=O)c3c(NC(=O)NN5CCOCC5)cccc3-4)cc2)CC1 Test system: Cyclin-dependent kinase 5/CDK5 activator 1 (Homo sapiens, UniProt Q00535) Read-out: IC50 Value: ?
[out] 2 to 55 nM

###

target-or-system: CDK2/Cyclin A1 (Homo sapiens, UniProt P24941)
test-description: Inhibition of recombinant human His/GST-tagged CDK2/Cyclin A expressed in baculovirus infected Sf9 cells using Histone H1 as substrate after 80 mins in presence of [33P]ATP by microbeta scintillation counting analysis
pIC50: −log10 of the molar value.
parameter-measured: pIC50

smiles-code: COc1cc(F)ccc1-c1ccnc(NC(=O)[C@@H]2CC[C@H](NC(C)=O)C2)c1
pIC50: 5.73 to 6.04

[in] What does the data say about its pIC50? Entry: COc1cc(F)ccc1-c1ccnc(NC(=O)[C@H]2CCC[C@@H](NC(C)=O)C2)c1
[out] 5.97 to 7.03

###

target-or-system: CDK9/cyclin T1 (Homo sapiens)
test-description: Inhibition of human His6-tagged CDK9/cyclin T1 expressed in baculovirus infected sf9 cells using GST-CTD as substrate after 10 mins in presence of [gamma-32P]ATP by SDS-PAGE analysis
parameter-measured: pIC50
Answers are plain numbers, as −log10 of the molar value.

Hi team, please reply with pIC50 for each item in this list.
1. C=Cc1ccc(-c2cc(=O)c3c(O)cc(O)c([C@H]4CCN(C)C[C@H]4O)c3o2)cc1
2. CN1CC[C@H](c2c(O)cc(O)c3c(=O)cc(-c4ccccc4)oc23)[C@H](O)C1
3. CN1CC[C@H](c2c(O)cc(O)c3c(=O)cc(-c4ccc(O)cc4)oc23)[C@H](O)C1

[out]
1. 8.02
2. 8.05
3. 8.02

###

target-or-system: Cyclin-dependent kinase 1/cyclin B1 (Homo sapiens)
Type: protein-complex assay
Description: Inhibition of CDK1/cyclin B (unknown origin)
parameter-measured: IC50 (µM)
Answers are plain numbers, in µM.

# annotated cases, reported IC50 shown
smiles-code: CC[C@H](Nc1nc(NCc2cnc(C)cc2C)c2ncn(C(C)C)c2n1)[C@@H](C)O
target-or-system: Cyclin-dependent kinase 1/cyclin B1 (Homo sapiens)
value-unit: µM
IC50: 0.578
--
smiles-code: CN1CC[C@@H](c2c(O)cc(O)c3c(=O)cc(-c4ccccc4Cl)oc23)[C@@H]1CO
target-or-system: Cyclin-dependent kinase 1/cyclin B1 (Homo sapiens)
value-unit: µM
IC50: 0.079

Now let's try a different one.
[in] Item: CN1CC[C@@H](c2c(O)cc(O)c3c(=O)cc(-c4ccc(C(F)(F)F)cc4Cl)oc23)[C@@H]1CO Test system: Cyclin-dependent kinase 1/cyclin B1 (Homo sapiens) Read-out: IC50 Value: ?
[out] 0.025
